Items are presented alongside their recorded growth.
# Tested on: M14 melanoma
# Protocol: NCI-60 one-dose screen, 48 h (100 = growth as untreated, 0 = no growth, -100 = all killed)
# Condition description: 10 µM unless noted
Compounds without any hit were thinned out: in the full panel of roughly 83,000, 20% have a hit.
Write the answer as a number in %, unit excluded.

- Compound: "CCCCCCCn1cc2c(N[C@H](C)c3ccccc3)ncnc2n1"
  Number: 99.8
- Compound: "CN1CCN(Cc2ccc(NC(=O)c3cncc(C#Cc4cnc5ccc(N6CCN(C)CC6)nn45)c3)cc2C(F)(F)F)CC1"
  Number: -45.8
- Compound: "C=CC(=O)N1CC=C(c2cc3c(N[C@H](C)c4ccccc4)ncnc3[nH]2)CC1"
  Number: 100

Entry COC(=O)c1[nH]nc2c1C1(C(=O)c3cccc4cccc1c34)C(C#N)=C(N)O2 (centres undefined) ; assay system M14 melanoma; growth recorded at 108

Entry CCCn1cnc2c(c1=N)C(c1ccc(F)cc1)c1sc3c(CC)cccc3c1O2 (centres undefined) ; assay system M14 melanoma; growth recorded at 13.3

Entry "O=S(=O)(Nc1ccc(I)cc1Cl)c1ccc(-c2cnc(C3CC3)o2)cc1" ; assay system M14 melanoma; growth recorded at 29.6

* * *

Items are presented alongside their recorded growth.
# Test system: SK-OV-3 ovarian
# Protocol: NCI-60 one-dose screen, 48 h (100 = growth as untreated, 0 = no growth, -100 = all killed)
# Condition description: 10 µM unless noted
Compounds without any hit were thinned out: in the full panel of roughly 83,000, 20% have a hit.
Write the answer as a number in %, unit excluded.

// below: answered compounds
- Compound: "O=C(O)c1ccc(-n2cc(CNc3cc(F)c(F)c(F)c3)c(-c3ccc(F)cc3)n2)cc1"
  growth, %: 116
- Compound: "CCc1cccc2c3c(sc12)C(c1ccc(OC)cc1)C(C#N)=C(/N=C/c1ccc(Cl)cc1)O3 (stereo not drawn)"
  growth, %: 40.4
- Compound: "CC1(C)CC[C@]2(C(=O)N3CCOCC3)CC[C@]3(C)C(=CC[C@@H]4[C@@]5(C)C/C(=C/c6ccccn6)C(=O)C(C)(C)[C@@H]5CC[C@]43C)[C@@H]2C1"
  growth, %: 108
- Compound: "O=S(=O)(Oc1ccc(-c2nnc(Nc3ccccc3)s2)cc1)C(F)(F)C(F)(F)C(F)(F)C(F)(F)C(F)(F)C(F)(F)F"
  growth, %: 108

Kindly note the recorded growth for Cc1ccc2c(c1)C13C(=C2Br)CCCN1C(=O)c1ccccc13 (stereo not drawn) , which is 96.2

* * *

# Tested on: 786-0 renal
# Protocol: NCI-60 one-dose screen, 48 h (100 = growth as untreated, 0 = no growth, -100 = all killed)
# Condition description: 10 µM unless noted
This is part of a sample that, as a whole, favours compounds with a hit. Of some 83,000 tested, about 20% had one in any assay. Calls of active or inactive are those of the source. The calls were made as follows: active = growth percent below 10; inactive = the rest.
Readout: growth

// below: answered compounds
- Compound: "O=C(CSc1nc2ccccc2c(=O)n1-c1ccccc1)Nc1cccc(C(=O)/C=C/c2ccccc2Cl)c1"
  Readout: "growth"
  Result: "105% (inactive)"
- Compound: "CCOC(=O)C1=NNC(c2ccc(Cl)cc2)C1C(=O)N1C(=S)NC(=O)C1CC(C)C (stereo not given)"
  Readout: "growth"
  Result: "108% (inactive)"
- Compound: "NC(=O)c1c(NC(=O)c2ccc(F)cc2F)sc2c1CCC(=O)C2"
  Readout: "growth"
  Result: "83.4% (inactive)"

Kindly note the recorded growth for O=C1Nc2ccccc2/C1=C/c1ccc(COCC2CO2)n1-c1ccc(O)cc1 (stereo not given) , which is 103% (inactive)

Kindly note the recorded growth for "Cc1ccc(NC(=O)c2ccc(CN3CCOCC3)c(C(F)(F)F)c2)cc1Oc1ccc(-c2[nH]nc3ncnc(N)c23)cc1" , which is 69.2% (inactive)
